- test system: Disintegrin and metalloproteinase domain-containing protein 17 (Homo sapiens, UniProt P78536)
- Sequence (P78536 whole entry, the tested form may be a part): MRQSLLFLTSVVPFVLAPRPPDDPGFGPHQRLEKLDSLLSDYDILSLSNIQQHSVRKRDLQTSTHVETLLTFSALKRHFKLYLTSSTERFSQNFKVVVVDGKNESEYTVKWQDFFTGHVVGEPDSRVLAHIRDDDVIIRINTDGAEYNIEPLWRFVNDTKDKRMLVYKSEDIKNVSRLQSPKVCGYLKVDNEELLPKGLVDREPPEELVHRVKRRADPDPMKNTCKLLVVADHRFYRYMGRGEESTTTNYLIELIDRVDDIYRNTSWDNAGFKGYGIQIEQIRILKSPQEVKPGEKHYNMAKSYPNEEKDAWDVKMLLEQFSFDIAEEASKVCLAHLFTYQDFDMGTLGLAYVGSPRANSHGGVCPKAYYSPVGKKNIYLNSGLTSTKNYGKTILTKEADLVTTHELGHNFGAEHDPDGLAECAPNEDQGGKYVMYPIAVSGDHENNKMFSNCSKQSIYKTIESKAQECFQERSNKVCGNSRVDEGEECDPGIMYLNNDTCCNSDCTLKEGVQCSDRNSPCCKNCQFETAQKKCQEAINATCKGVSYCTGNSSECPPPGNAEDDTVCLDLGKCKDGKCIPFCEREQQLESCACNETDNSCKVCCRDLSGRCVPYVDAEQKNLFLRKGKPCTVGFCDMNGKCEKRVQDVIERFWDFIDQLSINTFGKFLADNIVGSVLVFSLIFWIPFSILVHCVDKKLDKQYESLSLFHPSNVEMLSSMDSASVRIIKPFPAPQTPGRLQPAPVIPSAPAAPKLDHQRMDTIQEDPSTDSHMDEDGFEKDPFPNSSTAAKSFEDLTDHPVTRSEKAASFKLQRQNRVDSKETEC
pKi: −log10 of the molar value.
Grouping by measured pKi is done with the following cut points: bucket 1: < 7; bucket 2: ≥ 7 and < 8; bucket 3: ≥ 8

CCOP(=O)(c1ccc(-c2ccccc2)cc1)N1Cc2ccccc2CC1C(=O)NO (configuration not stated); bucket 2
CCOP(=O)(c1ccncc1)N1Cc2ccccc2CC1C(=O)NO (configuration not stated); bucket 1
CCO[P@@](=O)(c1ccc(OC)cc1)N1Cc2ccccc2C[C@H]1C(=O)NO; bucket 1
CCOCCOP(=O)(c1ccc(OC)cc1)N1Cc2ccccc2CC1C(=O)NO (configuration not stated); bucket 2
COc1ccc(P(=O)(OCCc2ccccc2)N2Cc3ccccc3CC2C(=O)NO)cc1 (configuration not stated); bucket 2
CCOP(=O)(c1ccc(C)cc1)N1Cc2ccccc2CC1C(=O)NO (configuration not stated); bucket 1
CCOP(=O)(c1ccc(OC)cc1)N1CCCC1C(=O)NO (configuration not stated); bucket 1
CCOP(=O)(c1ccc(OC)cc1)N1Cc2[nH]c3ccccc3c2CC1C(=O)NO (configuration not stated); bucket 3
CCN(CC)CCOP(=O)(c1ccc(OC)cc1)N1Cc2ccccc2CC1C(=O)NO (configuration not stated); bucket 2
CCOP(=O)(c1cccs1)N1Cc2ccccc2CC1C(=O)NO (configuration not stated); bucket 2
CCO[P@](=O)(c1ccc(OC)cc1)N1Cc2ccccc2CC1C(=O)NO (some centres not stated); bucket 1
CCOCCOc1ccc(P(=O)(OCC)N2Cc3ccccc3CC2C(=O)NO)cc1 (configuration not stated); bucket 3

----------
pKi: −log10 of the molar value.
Observed pKi for Matrix metalloproteinase-9 (Homo sapiens, UniProt P14780), reported per entry below.
metric: pKi

CCOP(=O)(c1cccs1)N1Cc2ccccc2CC1C(=O)NO (stereo not given); 7.23
COc1ccc(P(=O)(OC(C)C)N2Cc3ccccc3CC2C(=O)NO)cc1 (stereo not given); 7.63
CCN(CC)CCOP(=O)(c1ccc(OC)cc1)N1Cc2ccccc2CC1C(=O)NO (stereo not given); 7.78
CCOP(=O)(c1ccc(OC)cc1)N1Cc2cc(N)ccc2CC1C(=O)NO (stereo not given); 7.96
CCOP(=O)(c1ccc(Oc2ccc(N)cc2)cc1)N1Cc2ccccc2CC1C(=O)NO (stereo not given); 10.00

----------
- test system: Interstitial collagenase (Homo sapiens, UniProt P03956)
- Sequence (P03956 whole entry): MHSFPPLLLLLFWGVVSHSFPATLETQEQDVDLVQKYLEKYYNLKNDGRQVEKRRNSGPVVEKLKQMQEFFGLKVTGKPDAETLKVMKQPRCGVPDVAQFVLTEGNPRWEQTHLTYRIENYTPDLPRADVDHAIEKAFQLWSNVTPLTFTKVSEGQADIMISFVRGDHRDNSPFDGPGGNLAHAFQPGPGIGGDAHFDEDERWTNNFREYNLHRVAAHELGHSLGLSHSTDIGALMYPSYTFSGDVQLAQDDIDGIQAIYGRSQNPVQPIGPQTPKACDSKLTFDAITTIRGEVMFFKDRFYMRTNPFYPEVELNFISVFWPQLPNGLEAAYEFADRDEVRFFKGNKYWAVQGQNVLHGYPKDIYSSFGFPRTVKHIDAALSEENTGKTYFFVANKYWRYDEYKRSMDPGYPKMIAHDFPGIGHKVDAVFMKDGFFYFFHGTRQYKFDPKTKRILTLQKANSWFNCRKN
- measurement protocol: Inhibitory activity against matrix metalloprotease-1 (MMP-1)(recombinant human collagenase-1).
pKi: −log10 of the molar value.
metric: pKi

CCOP(=O)(c1ccc(OC)cc1)N1CCN(C(=O)OCc2ccccc2)CC1C(=O)NO (stereo not given); 7.70
CCOP(=O)(c1cccc(F)c1)N1Cc2ccccc2CC1C(=O)NO (stereo not given); 7.57
COc1ccc(P(=O)(OCC2CCCCC2)N2Cc3ccccc3CC2C(=O)NO)cc1 (stereo not given); 8.18
CCOP(=O)(c1ccc(F)cc1)N1Cc2ccccc2CC1C(=O)NO (stereo not given); 9.01
CCOP(=O)(/C=C/c1ccccc1)N1Cc2ccccc2CC1C(=O)NO (stereo not given); 6.80
CCOCCOP(=O)(c1ccc(OC)cc1)N1Cc2ccccc2CC1C(=O)NO (stereo not given); 8.17
CCOP(=O)(c1ccc(Oc2ccc(N)cc2)cc1)N1Cc2ccccc2CC1C(=O)NO (stereo not given); 8.19
COc1ccc(P(=O)(OC(C)C)N2Cc3ccccc3CC2C(=O)NO)cc1 (stereo not given); 7.75
CCOP(=O)(c1ccc(OC)cc1)N1Cc2ccsc2CC1C(=O)NO (stereo not given); 8.39

Cited source for all entries: ChEMBL document CHEMBL1135723
